Test system: Candida tropicalis
Experiment: Antifungal activity against Candida tropicalis assessed as lowest dose required to total inhibition of fungal growth
Format: functional
Quantity: GI

Given item Fc1ccc(OCCCC(Cn2ccnc2)c2ccc(Cl)cc2Cl)cc1.O=C(O)C(=O)O (stereo not given) , the value recorded as its GI is >100 µg/mL

Given item Clc1ccc(C(CCOc2ccccc2)Cn2ccnc2)c(Cl)c1.O=C(O)C(=O)O (stereo not given) , the value recorded as its GI is 100 µg/mL

Given item COc1ccc(OCCCC(Cn2ccnc2)c2ccc(Cl)cc2Cl)cc1.O=C(O)C(=O)O (stereo not given) , the value recorded as its GI is >100 µg/mL

Given item Clc1ccc(OCCC(Cn2ccnc2)c2ccc(Cl)cc2Cl)cc1.O=[N+]([O-])O (stereo not given) , the value recorded as its GI is >100 µg/mL

Given item COc1ccc(OCCC(Cn2ccnc2)c2ccc(Cl)cc2Cl)cc1.O=[N+]([O-])O (stereo not given) , the value recorded as its GI is >100 µg/mL
